Tested on: diaphorase
Test: fluorescently labeled diaphorase binding to peptide array with or without excess FAD
Settings: ratio without/with FAD calculated from measured binding values, 1 micromolar diaphorase
Measurement Label: Meas. ratio

# count of solved cases: 2
# Construct Sequence, System Tested, Meas. ratio
records = [
    ("AQVAVDGFYVDGSG [array peptide with C-terminal GSG linker]", "diaphorase", 0.65),
    ("YRFPNAQSPGGSG [array peptide with C-terminal GSG linker]", "diaphorase", 2.63),
]

P: WRLNPLQFGGSG [array peptide with C-terminal GSG linker]
Q: QLLQLLFGGSG [array peptide with C-terminal GSG linker]
R: YRGAGKNKGGSG [array peptide with C-terminal GSG linker]
In: Endpoint returns the given sequences ordered by ascending Meas. ratio. The reply should contain the labels ordered as requested.
Out: Q, R, P

P: PVPWRHVNYAHSG
Q: RNWYGGSG [array peptide with C-terminal GSG linker]
In: I need your help: which of the pair P , Q has higher Meas. ratio? State your choice using its label.
Out: Q
(Q: 2.66, P: 0.69)

A: DANLFGYFKDGGS
B: YRYGWQKYGGSG [array peptide with C-terminal GSG linker]
In: // which entry reports the smaller Meas. ratio, A or B ? State your choice using its label.
Out: A
(A: 0.70, B: 2.43)

###

System: diaphorase
Assay: fluorescently labeled diaphorase binding to peptide array with or without excess FAD
Conditions: ratio without/with FAD calculated from measured binding values, 1 micromolar diaphorase
Measurement Label: Meas. ratio

# count of solved cases: 8
# Construct Sequence, System Tested, Meas. ratio
data = [
    ("ELFGALFKGGSG [array peptide with C-terminal GSG linker]", "diaphorase", 0.61),
    ("YRRPWKFRDGSG [array peptide with C-terminal GSG linker]", "diaphorase", 1.74),
    ("LKQLFLEGGSG [array peptide with C-terminal GSG linker]", "diaphorase", 0.63),
    ("WRVQAWRPNKVEG", "diaphorase", 2.43),
    ("VSWVFGLGHEGGS", "diaphorase", 0.71),
    ("YRFQSGLPAKDGSG [array peptide with C-terminal GSG linker]", "diaphorase", 2.71),
    ("KPLAVQKVGSG (KPLAVQKVFGSG) [array peptide with C-terminal GSG linker]", "diaphorase", 9.39),
    ("RWQYYNQKFGSG [array peptide with C-terminal GSG linker]", "diaphorase", 2.88),
]

I: YRWGAKHYGGSG [array peptide with C-terminal GSG linker]
II: RSHPKHNVGSG [array peptide with C-terminal GSG linker]
In: // which entry reports the smaller Meas. ratio, I or II ? State your choice using its label.
Out: II
(II: 0.50, I: 2.06)

###

Tested on: diaphorase
Test: fluorescently labeled diaphorase binding to peptide array with or without excess FAD
Details: 1 micromolar labeled diaphorase, no FAD; 65535 is detector saturation
Measurement Label: 1 micro no FAD (array fluorescence of bound diaphorase)

# count of solved cases: 5
# Construct Sequence, Endpoint Result
rows = [
    ("RAQYAQYLFGGSG [array peptide with C-terminal GSG linker]", 8721.5),
    ("RNWYGGSG [array peptide with C-terminal GSG linker]", 7830.5),
    ("WLDLGVFPYQHLGSG [array peptide with C-terminal GSG linker]", 2202),
    ("RLYPQGYGGSG [array peptide with C-terminal GSG linker]", 11912),
    ("ELFGALFKGGSG [array peptide with C-terminal GSG linker]", 2083.5),
]

I: AFYGLELGGSG [array peptide with C-terminal GSG linker]
II: RWSFPAKGGSG [array peptide with C-terminal GSG linker]
III: RPLQVQRGGSG [array peptide with C-terminal GSG linker]
IV: VERASYNLDGSG [array peptide with C-terminal GSG linker]
In: Endpoint returns the given sequences ordered by ascending 1 micro no FAD (array fluorescence of bound diaphorase). The reply should contain the labels ordered as requested.
Out: IV, I, III, II
